Hello, the source for this data is ChEMBL document CHEMBL3608247, in case you need it.

Target: NAD-dependent protein deacetylase sirtuin-3, mitochondrial (Homo sapiens, UniProt Q9NTG7)
Sequence (Q9NTG7 whole entry): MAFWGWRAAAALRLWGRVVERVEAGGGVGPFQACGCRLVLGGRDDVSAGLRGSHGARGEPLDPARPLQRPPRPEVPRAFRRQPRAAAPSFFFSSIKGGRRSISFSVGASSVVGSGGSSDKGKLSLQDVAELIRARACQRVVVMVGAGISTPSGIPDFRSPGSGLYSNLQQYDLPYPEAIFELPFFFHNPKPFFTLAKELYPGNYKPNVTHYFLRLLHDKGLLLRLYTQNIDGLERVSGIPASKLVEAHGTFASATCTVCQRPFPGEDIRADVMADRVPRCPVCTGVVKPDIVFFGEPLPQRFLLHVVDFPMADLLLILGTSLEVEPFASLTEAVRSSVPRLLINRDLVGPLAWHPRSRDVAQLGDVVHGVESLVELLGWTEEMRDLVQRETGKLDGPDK
Assay: Inhibition of human His6-tagged SIRT3 after 10 mins by HPLC analysis in presence of beta-NAD
pIC50: −log10 of the molar value.
MEASURE: pIC50

Observe how each entry below is paired with its result.
Query: pIC50; subject: CC(=O)NCCCC[C@H](NC(=O)[C@H](CCCCNC(C)=S)NC(=O)[C@H](CNC(C)=O)NC(C)=O)C(N)=O
6.00

Query: pIC50; subject: CCC[C@H](NC(C)=O)C(=O)N[C@@H](CCCCNC(C)=S)C(=O)N[C@@H](CCCCNC(C)=O)C(N)=O
5.68

Query: pIC50; subject: CC(=O)NCCCC[C@H](NC(C)=O)C(=O)N[C@@H](CCCCNC(C)=S)C(=O)N[C@@H](Cc1ccc2ccccc2c1)C(N)=O
5.68

Query: pIC50; subject: CC(=O)NC[C@H](NC(=O)[C@H](CCCCNC(C)=S)NC(=O)[C@H](Cc1csc2ccccc12)NC(C)=O)C(N)=O
5.76

Query: pIC50; subject: CC(=O)NC[C@H](NC(=O)[C@H](CCCCNC(C)=S)NC(=O)[C@H](Cc1ccc(-c2ccccc2)cc1)NC(C)=O)C(N)=O
5.79

A: CC(=O)NCCCC[C@H](NC(C)=O)C(=O)N[C@@H](CCCCNC(C)=S)C(=O)N[C@@H](CNC(C)=O)C(N)=O
B: CC(=O)NCCCC[C@H](NC(C)=O)C(=O)N[C@@H](CCCCNC(C)=S)C(=O)N[C@@H](Cc1csc2ccccc12)C(N)=O
C: CC(=O)NCCCC[C@H](NC(C)=O)C(=O)N[C@@H](CCCCNC(C)=S)C(=O)N[C@@H](Cc1ccc(-c2ccccc2)cc1)C(N)=O
List these items ordered by pIC50, big to small. Could you list the labels in the order requested?
A, B, C
(A: 6.44, B: 5.85, C: 5.49)

I: CC(=O)NC[C@H](NC(=O)[C@H](CCCCNC(C)=S)NC(=O)[C@H](CNC(C)=O)NC(C)=O)C(N)=O
II: CC[C@H](NC(=O)[C@H](CCCCNC(C)=S)NC(=O)[C@H](CCCCNC(C)=O)NC(C)=O)C(N)=O
I or II : whose pIC50 is greater? Reply briefly: the label of your chosen item.
II
(II: 5.96, I: 5.74)

###

Target: NAD-dependent protein deacylase sirtuin-5, mitochondrial (Homo sapiens, UniProt Q9NXA8)
Sequence (Q9NXA8 whole entry): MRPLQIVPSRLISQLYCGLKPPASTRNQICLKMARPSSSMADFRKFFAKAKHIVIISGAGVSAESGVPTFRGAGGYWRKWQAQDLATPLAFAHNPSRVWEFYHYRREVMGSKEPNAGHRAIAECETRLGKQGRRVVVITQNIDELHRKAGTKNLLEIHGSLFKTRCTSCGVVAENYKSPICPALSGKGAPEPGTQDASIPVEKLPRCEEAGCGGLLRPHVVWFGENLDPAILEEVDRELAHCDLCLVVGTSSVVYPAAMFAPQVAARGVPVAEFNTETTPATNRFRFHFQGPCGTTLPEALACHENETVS
MEASURE: IC50 (µM)
Dear colleague, please return just the value in µM, with no unit written.

Observed IC50 on NAD-dependent protein deacylase sirtuin-5, mitochondrial (Homo sapiens, UniProt Q9NXA8) for CC(=O)NC[C@H](NC(=O)[C@H](CCCCNC(C)=S)NC(=O)[C@H](Cc1ccc2ccccc2c1)NC(C)=O)C(N)=O , please.
2000

###

Target: UniProt:Q96EB6
Assay: Inhibition of human His6 or GST-tagged SIRT1 after 10 mins by Dixon plot analysis in presence of beta-NAD
pIC50: −log10 of the molar value.
MEASURE: pIC50

Query: pIC50; subject: CC(=O)NCCCC[C@H](NC(=O)[C@H](CCCCNC(C)=S)NC(=O)[C@H](Cc1ccc2ccccc2c1)NC(C)=O)C(N)=O
4.90

Query: pIC50; subject: CC(=O)NCCCC[C@H](NC(=O)[C@H](CCCCNC(C)=S)NC(=O)[C@H](Cc1csc2ccccc12)NC(C)=O)C(N)=O
4.84

Query: pIC50; subject: CC(=O)NC[C@H](NC(=O)[C@H](CCCCNC(C)=S)NC(=O)[C@H](Cc1ccc2ccccc2c1)NC(C)=O)C(N)=O
4.72

###

Target: NAD-dependent protein deacetylase sirtuin-1 (Homo sapiens)
Assay: Inhibition of human His6 or GST-tagged SIRT1 after 10 mins by HPLC analysis in presence of beta-NAD
MEASURE: IC50 (nM)

Observed IC50 on NAD-dependent protein deacetylase sirtuin-1 (Homo sapiens) for CCC[C@H](NC(=O)[C@H](CCCCNC(C)=S)NC(=O)[C@H](CCCCNC(C)=O)NC(C)=O)C(N)=O , please.
2850

Observed IC50 on NAD-dependent protein deacetylase sirtuin-1 (Homo sapiens) for CC[C@H](NC(C)=O)C(=O)N[C@@H](CCCCNC(C)=S)C(=O)N[C@@H](CCCCNC(C)=O)C(N)=O , please.
2130

Observed IC50 on NAD-dependent protein deacetylase sirtuin-1 (Homo sapiens) for CC(=O)NCCCC[C@H](NC(=O)[C@H](CCCCNC(C)=S)NC(=O)[C@H](Cc1ccc(-c2ccccc2)cc1)NC(C)=O)C(N)=O , please.
3030

a: CC(=O)NCCCC[C@H](NC(C)=O)C(=O)N[C@@H](CCCCNC(C)=S)C(=O)N[C@@H](Cc1ccc(-c2ccccc2)cc1)C(N)=O
b: CCCC[C@H](NC(=O)[C@H](CCCCNC(C)=S)NC(=O)[C@H](CCCCNC(C)=O)NC(C)=O)C(N)=O
c: CC(=O)NCCCC[C@H](NC(C)=O)C(=O)N[C@@H](CCCCNC(C)=S)C(=O)N[C@@H](Cc1csc2ccccc12)C(N)=O
d: CC(=O)NC[C@H](NC(=O)[C@H](CCCCNC(C)=S)NC(=O)[C@H](CNC(C)=O)NC(C)=O)C(N)=O
Sort entries by IC50 from minimum to maximum value. Could you list the labels in the order requested?
b, c, a, d

###

Molecular target: NAD-dependent protein deacetylase sirtuin-1 (Homo sapiens, UniProt Q96EB6)
Sequence (Q96EB6 whole entry): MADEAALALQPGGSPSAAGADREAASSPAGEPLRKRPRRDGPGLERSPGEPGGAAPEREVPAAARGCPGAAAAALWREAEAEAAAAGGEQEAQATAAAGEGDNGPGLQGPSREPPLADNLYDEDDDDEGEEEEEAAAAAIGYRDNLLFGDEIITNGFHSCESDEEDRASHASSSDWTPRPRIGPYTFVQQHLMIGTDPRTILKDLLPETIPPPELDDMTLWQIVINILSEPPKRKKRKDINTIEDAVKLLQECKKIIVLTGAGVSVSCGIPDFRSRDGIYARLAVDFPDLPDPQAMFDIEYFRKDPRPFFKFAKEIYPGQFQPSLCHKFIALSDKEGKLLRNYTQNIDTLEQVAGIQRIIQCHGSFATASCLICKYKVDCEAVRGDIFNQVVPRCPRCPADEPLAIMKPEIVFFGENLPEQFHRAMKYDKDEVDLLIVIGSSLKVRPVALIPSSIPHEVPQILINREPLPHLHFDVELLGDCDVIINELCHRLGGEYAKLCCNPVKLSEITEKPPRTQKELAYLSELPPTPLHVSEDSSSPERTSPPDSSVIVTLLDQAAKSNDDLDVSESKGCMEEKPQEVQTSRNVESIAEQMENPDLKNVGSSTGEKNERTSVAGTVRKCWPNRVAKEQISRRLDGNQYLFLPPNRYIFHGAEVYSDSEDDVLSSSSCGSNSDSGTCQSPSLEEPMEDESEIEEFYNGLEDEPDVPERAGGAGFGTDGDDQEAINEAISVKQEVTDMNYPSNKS
Assay: Inhibition of human His6 or GST-tagged SIRT1 after 10 mins by HPLC analysis in presence of beta-NAD
MEASURE: IC50 (µM)

Observe how each entry below is paired with its result.
Query: IC50; subject: CC(=O)NCCCC[C@H](NC(C)=O)C(=O)N[C@@H](CCCCNC(C)=S)C(=O)N[C@@H](CNC(C)=O)C(N)=O
2.32

Query: IC50; subject: CCC[C@H](NC(C)=O)C(=O)N[C@@H](CCCCNC(C)=S)C(=O)N[C@@H](CCCCNC(C)=O)C(N)=O
10.7

Query: IC50; subject: CC(=O)NCCCC[C@H](NC(=O)[C@H](CCCCNC(C)=S)NC(=O)[C@H](CNC(C)=O)NC(C)=O)C(N)=O
6.86

1: CC(=O)NC[C@H](NC(=O)[C@H](CCCCNC(C)=S)NC(=O)[C@H](Cc1csc2ccccc12)NC(C)=O)C(N)=O
2: CCCC[C@H](NC(C)=O)C(=O)N[C@@H](CCCCNC(C)=S)C(=O)N[C@@H](CCCCNC(C)=O)C(N)=O
// compare measured IC50 between 1 and 2 ; output the lower one Reply briefly: the label of your chosen item.
2
(2: 2.78 µM, 1: 9.6 µM)
